- assay system: Integrin alpha-IIb/beta-3 (Homo sapiens, UniProt P05106+P08514)
- Sequence (P05106 27-788 limits assumed): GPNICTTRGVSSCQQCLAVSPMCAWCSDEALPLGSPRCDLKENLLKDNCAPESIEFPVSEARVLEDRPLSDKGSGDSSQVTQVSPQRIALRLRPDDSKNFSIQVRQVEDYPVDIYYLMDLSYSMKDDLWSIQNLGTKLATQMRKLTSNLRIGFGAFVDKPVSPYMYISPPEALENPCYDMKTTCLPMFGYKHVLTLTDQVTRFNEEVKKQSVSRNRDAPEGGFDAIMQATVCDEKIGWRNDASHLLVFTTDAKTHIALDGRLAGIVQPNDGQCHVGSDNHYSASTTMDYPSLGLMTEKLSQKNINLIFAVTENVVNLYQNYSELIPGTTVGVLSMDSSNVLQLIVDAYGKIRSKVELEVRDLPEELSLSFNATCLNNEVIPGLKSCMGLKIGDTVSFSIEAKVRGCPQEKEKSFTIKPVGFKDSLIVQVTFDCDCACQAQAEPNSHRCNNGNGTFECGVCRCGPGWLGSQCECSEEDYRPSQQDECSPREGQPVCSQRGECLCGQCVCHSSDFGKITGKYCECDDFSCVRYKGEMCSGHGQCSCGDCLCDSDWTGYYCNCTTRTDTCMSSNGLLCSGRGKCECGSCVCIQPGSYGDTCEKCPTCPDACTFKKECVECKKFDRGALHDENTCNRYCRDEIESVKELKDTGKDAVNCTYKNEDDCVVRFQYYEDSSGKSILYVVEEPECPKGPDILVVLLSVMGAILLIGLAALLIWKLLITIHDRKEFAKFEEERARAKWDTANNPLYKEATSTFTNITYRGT
- Sequence (P08514 32-887 limits assumed): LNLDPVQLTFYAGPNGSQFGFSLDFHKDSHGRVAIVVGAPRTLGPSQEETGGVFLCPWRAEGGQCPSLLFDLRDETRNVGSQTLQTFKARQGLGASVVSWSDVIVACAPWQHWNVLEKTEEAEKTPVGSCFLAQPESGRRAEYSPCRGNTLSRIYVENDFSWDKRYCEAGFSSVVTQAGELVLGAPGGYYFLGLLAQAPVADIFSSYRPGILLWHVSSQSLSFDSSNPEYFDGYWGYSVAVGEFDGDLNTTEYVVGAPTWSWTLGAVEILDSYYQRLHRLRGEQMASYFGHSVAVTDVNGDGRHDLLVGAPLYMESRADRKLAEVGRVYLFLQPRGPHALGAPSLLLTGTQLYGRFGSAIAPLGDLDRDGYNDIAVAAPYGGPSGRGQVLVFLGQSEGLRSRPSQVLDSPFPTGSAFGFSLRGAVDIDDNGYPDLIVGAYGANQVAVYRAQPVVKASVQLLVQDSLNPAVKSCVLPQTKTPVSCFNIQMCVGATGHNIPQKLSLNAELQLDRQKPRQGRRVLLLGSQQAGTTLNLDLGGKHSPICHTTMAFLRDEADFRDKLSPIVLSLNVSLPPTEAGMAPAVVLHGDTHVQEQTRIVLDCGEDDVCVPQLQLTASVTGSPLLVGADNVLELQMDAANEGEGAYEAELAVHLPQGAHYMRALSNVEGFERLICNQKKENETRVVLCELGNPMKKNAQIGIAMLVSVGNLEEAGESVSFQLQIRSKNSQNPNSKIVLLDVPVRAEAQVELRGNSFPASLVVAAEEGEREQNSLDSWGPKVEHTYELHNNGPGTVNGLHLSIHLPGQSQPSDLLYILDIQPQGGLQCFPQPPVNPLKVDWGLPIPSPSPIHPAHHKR
- Sequence (P08514 891-1039 limits assumed): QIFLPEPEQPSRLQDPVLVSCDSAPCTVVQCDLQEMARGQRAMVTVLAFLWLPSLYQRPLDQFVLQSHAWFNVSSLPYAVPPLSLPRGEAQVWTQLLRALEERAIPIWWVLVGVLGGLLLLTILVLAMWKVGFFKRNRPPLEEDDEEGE
- test summary: Antagonist activity at FITC-tagged alphaIIbbeta3 integrin in human platelet assessed as inhibition of FITC-fibrinogen binding on washed platelets
pIC50: −log10 of the molar value.
measured endpoint: pIC50

O=C(O)CC(NC(=O)CCC(=O)Nc1ccc2c(c1)CNCC2)c1ccc(F)cc1 (stereo not drawn) ... 9.00
O=C(O)CC(NC(=O)CCC(=O)Nc1ccc2c(c1)CNCC2)c1ccccc1 (stereo not drawn) ... 9.00
O=C(O)CC(NC(=O)c1cccc(C(=O)Nc2ccc3c(c2)CNCC3)c1)c1ccccc1 (stereo not drawn) ... 9.00
